Target: Tyrosine-protein kinase BTK [C481S] (Homo sapiens, UniProt Q06187, C481S)
Sequence (Q06187 2-659 C481S limits assumed): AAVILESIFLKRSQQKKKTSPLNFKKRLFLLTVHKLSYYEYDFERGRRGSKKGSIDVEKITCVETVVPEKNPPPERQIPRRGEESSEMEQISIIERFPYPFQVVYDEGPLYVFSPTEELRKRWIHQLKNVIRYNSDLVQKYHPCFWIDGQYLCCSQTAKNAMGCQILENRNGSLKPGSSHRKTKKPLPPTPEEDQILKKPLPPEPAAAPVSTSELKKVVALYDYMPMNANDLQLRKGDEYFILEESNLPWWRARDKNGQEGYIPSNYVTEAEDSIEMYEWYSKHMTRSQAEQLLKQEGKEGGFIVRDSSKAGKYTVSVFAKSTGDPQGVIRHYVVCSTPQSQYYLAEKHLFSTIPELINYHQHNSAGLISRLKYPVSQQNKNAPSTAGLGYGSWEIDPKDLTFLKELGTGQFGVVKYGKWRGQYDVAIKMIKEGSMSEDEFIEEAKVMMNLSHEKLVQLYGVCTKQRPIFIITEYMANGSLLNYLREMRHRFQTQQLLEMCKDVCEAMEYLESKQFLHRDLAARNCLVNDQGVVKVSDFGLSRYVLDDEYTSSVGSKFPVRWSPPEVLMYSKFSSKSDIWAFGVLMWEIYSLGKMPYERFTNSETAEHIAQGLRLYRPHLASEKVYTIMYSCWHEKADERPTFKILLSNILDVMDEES
Test: Biochemical Evaluation
pIC50: −log10 of the molar value.
Property Label: pIC50

INSERT INTO assay_data (molecule, property_label, test_result) VALUES
  ('Nc1ncnc2c1c(-c1ccc(Oc3ccccc3)cc1)nn2[C@H]1CC[C@@H](O)CC1 [US12384786, Example 8A]', 'pIC50', 9.15);

Values from BindingDB's records for patent US12384786
